This collection of values is drawn from patent US12486278B2.

- tested.on: MASP-2 (CCP1-CCP2-SP) (Homo sapiens, UniProt O00187)
- Construct: 15 μL of Enzyme MASP-2 (CCP1-CCP2-SP) in Assay Buffer
- Sequence (O00187 445-686 limits assumed): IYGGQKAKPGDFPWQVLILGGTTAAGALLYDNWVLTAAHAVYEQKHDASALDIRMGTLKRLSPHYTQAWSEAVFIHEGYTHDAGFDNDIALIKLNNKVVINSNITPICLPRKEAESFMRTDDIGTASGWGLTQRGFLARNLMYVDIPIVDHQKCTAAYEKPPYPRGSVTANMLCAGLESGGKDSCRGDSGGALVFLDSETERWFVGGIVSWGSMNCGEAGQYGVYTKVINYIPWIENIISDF
- Sequence (O00187 298-444 partner limits assumed): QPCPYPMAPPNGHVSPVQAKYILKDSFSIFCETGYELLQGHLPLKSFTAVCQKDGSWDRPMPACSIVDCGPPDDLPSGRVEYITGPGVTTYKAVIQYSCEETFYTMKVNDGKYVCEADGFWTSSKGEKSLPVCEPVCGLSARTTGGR
- assay.remarks: Enzymatic Assay for MASP-2 (fluorogenic substrate)
- measurement.conditions: fluorogenic substrate based on C2 cleavage site; room temperature, 20 min; 20 mM HEPES pH 7.4, 140 mM NaCl, 0.1% Tween 20
pKi: −log10 of the molar value. Structures can show the parent of a compound that is named as a salt.
measure: pKi

Input line: Which pKi value belongs to C[C@H](NC(=O)[C@H]1C[C@H](Cc2cc(Br)c(Cl)s2)CN1)C(=O)NCc1cc2cnccc2[nH]1 [Compound I-21, Di-Trifluoroacetate] ?
Output line: > 6.30

Input line: Which pKi value belongs to C[C@H](NC(=O)[C@H]1C[C@@H](c2ccc(-c3ccccc3)cc2)CCN1)C(=O)NCc1ccc(C(=N)N)cc1 [Compound I-69, Di-Trifluoroacetate] ?
Output line: > 6.30

Input line: Which pKi value belongs to C[C@H](NC(=O)[C@H]1C[C@@H](c2ccc(-c3cccnc3)cc2)CCN1)C(=O)NCc1cc(Cl)ccc1-n1cnnn1 [Compound I-101, trifluoroacetate] ?
Output line: > 6.30

Input line: Which pKi value belongs to C[C@H](NC(=O)[C@H]1C[C@H](Cc2ccccc2)CN1)C(=O)NCc1ccc2nccn2c1 [Compound I-59] ?
Output line: < 5.00

Input line: Which pKi value belongs to COC(=O)c1cccc(C[C@@H]2CN[C@@H](C(=O)N[C@@H](C)C(=O)NCc3ccc(C(=N)N)cc3)C2)c1 [Compound I-54, Di-Trifluoroacetate] ?
Output line: > 6.30

Input line: Which pKi value belongs to C[C@H](NC(=O)[C@H]1C[C@H](Cc2ccccc2)CN1)C(=O)NCc1ccc2ncc(Cl)n2c1 [Compound I-60, Trifluoroacetate] ?
Output line: < 5.00

---

- tested.on: MASP-2 (CCP1-CCP2-SP) (Homo sapiens)
- Construct: 15 μL of Enzyme MASP-2 (CCP1-CCP2-SP) in Assay Buffer
- assay.remarks: Enzymatic Assay for MASP-2 (fluorogenic substrate)
- measurement.conditions: fluorogenic substrate based on C2 cleavage site; room temperature, 20 min; 20 mM HEPES pH 7.4, 140 mM NaCl, 0.1% Tween 20
Counter-ions that a name gives are not always drawn.
measure: Ki

Input line: Lab note: need Ki with MASP-2 (CCP1-CCP2-SP) (Homo sapiens) for entry Cc1nc(N)ccc1CNC(=O)[C@@H]1COCCN1C(=O)[C@H]1C[C@H](Cc2ccccc2)CN1 [Compound I-12, Di-Trifluoroacetate] , please look it up.
Output line: 0.5 to 2.5 µM

Input line: Lab note: need Ki with MASP-2 (CCP1-CCP2-SP) (Homo sapiens) for entry Cc1nc(N)ccc1CNC(=O)[C@H](CO)NC(=O)[C@H]1C[C@H](Cc2ccccc2)CN1 [Compound I-57, Dihydrochloride] , please look it up.
Output line: < 0.5 µM

Input line: Lab note: need Ki with MASP-2 (CCP1-CCP2-SP) (Homo sapiens) for entry Cc1nc(N)ccc1CNC(=O)[C@@H]1CCN1C(=O)[C@H]1C[C@@H](c2cccc(-c3ccccc3)c2)CCN1 [Compound I-65, Di-Trifluoroacetate] , please look it up.
Output line: < 0.5 µM

Input line: Lab note: need Ki with MASP-2 (CCP1-CCP2-SP) (Homo sapiens) for entry Cc1nc(N)ccc1CNC(=O)[C@H](C)NC(=O)[C@H]1C[C@@H](c2cccc(-n3cccn3)c2)CCN1 [Compound I-78, Dihydrochloride] , please look it up.
Output line: < 0.5 µM

Input line: Lab note: need Ki with MASP-2 (CCP1-CCP2-SP) (Homo sapiens) for entry C[C@H](NC(=O)[C@H]1C[C@H](c2ccccc2)CN1)C(=O)NCc1cc2c(Br)cncc2[nH]1 [Compound I-1, di-trifluoroacetate] , please look it up.
Output line: > 10 µM

Input line: Lab note: need Ki with MASP-2 (CCP1-CCP2-SP) (Homo sapiens) for entry Cc1nc(N)ccc1CNC(=O)[C@H](C)NC(=O)[C@H]1C[C@H](Cc2ccc(F)c(Cl)c2)CN1CC(=O)O [Compound I-33, Di-Trifluoroacetate] , please look it up.
Output line: < 0.5 µM

Input line: Lab note: need Ki with MASP-2 (CCP1-CCP2-SP) (Homo sapiens) for entry C[C@H](NC(=O)[C@H]1C[C@H](Cc2ccccc2)CN1)C(=O)NCc1cc2c(s1)CNC2 [Compound I-99, Di-Trifluoroacetate Salt] , please look it up.
Output line: < 0.5 µM

Input line: Lab note: need Ki with MASP-2 (CCP1-CCP2-SP) (Homo sapiens) for entry C[C@H](NC(=O)[C@H]1C[C@@H](c2cccc(-n3cccn3)c2)CCN1)C(=O)NCc1ccc(C(=N)N)cc1 [Compound I-77, Dihydrochloride] , please look it up.
Output line: < 0.5 µM

Input line: Lab note: need Ki with MASP-2 (CCP1-CCP2-SP) (Homo sapiens) for entry C[C@H](NC(=O)[C@H]1C[C@H](Cc2ccc(F)cc2)CN1CCC(=O)O)C(=O)NCc1ccc(C(=N)N)cc1 [Compound I-37, Di-Trifluoroacetate] , please look it up.
Output line: < 0.5 µM

Input line: Lab note: need Ki with MASP-2 (CCP1-CCP2-SP) (Homo sapiens) for entry C[C@H](NC(=O)[C@H]1C[C@H](Cc2ccc(F)c(Cl)c2)CN1)C(=O)NCc1cc2cnccc2[nH]1 [Compound I-2, Di-Trifluoroacetate] , please look it up.
Output line: < 0.5 µM

Input line: Lab note: need Ki with MASP-2 (CCP1-CCP2-SP) (Homo sapiens) for entry O=C(NCc1cc(Cl)ccc1-n1cnnn1)[C@@H]1CCN1C(=O)[C@H]1C[C@@H](c2ccc(-c3ccccc3)cc2)CCN1 [Compound I-103, trifluoroacetate] , please look it up.
Output line: < 0.5 µM

Input line: Lab note: need Ki with MASP-2 (CCP1-CCP2-SP) (Homo sapiens) for entry C[C@H](NC(=O)[C@H]1C[C@@H](c2ccccc2)CCN1CCC(=O)O)C(=O)NCc1cc(Cl)ccc1-n1cnnn1 [Compound I-29, Trifluoroacetate] , please look it up.
Output line: 2.5 to 10 µM

Input line: Lab note: need Ki with MASP-2 (CCP1-CCP2-SP) (Homo sapiens) for entry C[C@H](NC(=O)[C@H]1C[C@@H](c2ccccc2)CCN1CCC(=O)O)C(=O)NCc1cc2cnccc2[nH]1 [Compound I-107, di-trifluoroacetate salt] , please look it up.
Output line: < 0.5 µM

Input line: Lab note: need Ki with MASP-2 (CCP1-CCP2-SP) (Homo sapiens) for entry C[C@H](NC(=O)[C@H]1C[C@H](Cc2cccc(Cl)c2)CN1)C(=O)NCc1cc2cnccc2[nH]1 [Compound I-5, di-trifluoroacetate] , please look it up.
Output line: < 0.5 µM

Input line: Lab note: need Ki with MASP-2 (CCP1-CCP2-SP) (Homo sapiens) for entry Cc1nc(N)ccc1CNC(=O)[C@H](C)NC(=O)[C@H]1C[C@H](Cc2cc(Cl)cs2)CN1 [Compound I-87, Dihydrochloride] , please look it up.
Output line: < 0.5 µM

Input line: Lab note: need Ki with MASP-2 (CCP1-CCP2-SP) (Homo sapiens) for entry C[C@H](NC(=O)[C@H]1C[C@H](c2ccccc2)CN1)C(=O)NCc1cc2ccncc2[nH]1 [Compound I-3, di-trifluoroacetate] , please look it up.
Output line: 2.5 to 10 µM

Input line: Lab note: need Ki with MASP-2 (CCP1-CCP2-SP) (Homo sapiens) for entry CCN1C[C@@H](Cc2ccc(F)c(Cl)c2)C[C@@H]1C(=O)N[C@@H](C)C(=O)NCc1cnc2[nH]cc(Cl)c2c1 [Compound I-27] , please look it up.
Output line: < 0.5 µM

Input line: Lab note: need Ki with MASP-2 (CCP1-CCP2-SP) (Homo sapiens) for entry CC(NC(=O)[C@H]1C[C@@H](c2ccccc2)CCN1CC(=O)O)C(=O)NCc1cc2cnccc2[nH]1 (stereo in doubt) [Compound I-104, di-trifluoroacetate] , please look it up.
Output line: < 0.5 µM

Input line: Lab note: need Ki with MASP-2 (CCP1-CCP2-SP) (Homo sapiens) for entry Cc1nc(N)ccc1CNC(=O)[C@H](C)NC(=O)[C@H]1C[C@@H](c2ccccc2)CCN1CCNS(C)(=O)=O [Compound I-41, Di-Trifluoroacetate] , please look it up.
Output line: 2.5 to 10 µM

Input line: Lab note: need Ki with MASP-2 (CCP1-CCP2-SP) (Homo sapiens) for entry C[C@H](NC(=O)[C@H]1C[C@@H](c2ccc(N3CCOCC3)cc2)CCN1)C(=O)NCc1ccc(C(=N)N)cc1 [Compound I-76, Dihydrochloride] , please look it up.
Output line: < 0.5 µM

Input line: Lab note: need Ki with MASP-2 (CCP1-CCP2-SP) (Homo sapiens) for entry C[C@H](NC(=O)[C@H]1C[C@H](Cc2cc(Cl)c(Cl)s2)CN1)C(=O)NCc1cc2cnccc2[nH]1 [Compound I-22, Di-Trifluoroacetate] , please look it up.
Output line: < 0.5 µM

Input line: Lab note: need Ki with MASP-2 (CCP1-CCP2-SP) (Homo sapiens) for entry C[C@H](NC(=O)[C@H]1C[C@H](Cc2cc(Cl)c(Cl)s2)CN1)C(=O)NCc1cnc2c(c1)c(Cl)cn2C [Compound I-20, Trifluoroacetate] , please look it up.
Output line: < 0.5 µM
